Collected IC50 values appear next to each entry.
assay_remarks: Inhibition of baker's yeast alpha-glucosidase using p-nitrophenyl-alpha D-glucopyranoside as substrate preincubated for 15 mins followed by substrate addition measured after 30 mins by spectrophotometric analysis
Parameters: species or system Saccharomyces cerevisiae

# annotated cases, reported IC50 shown
c1ccc(Nc2nc3ccccc3o2)cc1: > 200 µM
Cc1ccc(Nc2nc3ccccc3o2)c(C)c1: > 200 µM
COc1ccc(Nc2nc3ccccc3o2)cc1: > 200 µM

Kindly consider the entry below.
[in] Value lookup for IC50; key = CCOc1ccc(Nc2nc3ccccc3o2)cc1
[out] > 200 µM
